Measured T/C values are reported for all entries that follow.
# Tested on: CD2F1 mice, L1210 leukemia ip, survival T/C
# ASSAY SUMMARY: NCI In Vivo Anticancer Drug Screen. Data for tumor model L1210 Leukemia (intraperitoneal) in CD2F1 (CDF1) mice
# TEST CONDITIONS: endpoint: mean survival time; dose: 50.0 mg/kg/injection; schedule: Q04DX003 (ip); vehicle: saline with Tween-80; higher = longer survival
Inconclusive results and toxic doses are left out.

{"COMPOUND": "CC(C)N(CCN(C)C(=O)C(O)(c1ccccc1)c1ccccc1)C(C)C", "T/C": "101 % of control"}
{"COMPOUND": "O=C(CCl)N1CCC2(CC1)SSC1(CCN(C(=O)CCl)CC1)S2", "T/C": "100 % of control"}
{"COMPOUND": "CCOc1ccc(NC(=O)C2CCC(C)(C(=O)O)C2(C)C)cc1 (stereo not drawn)", "T/C": "100 % of control"}

====

# System: CD2F1 mice, L1210 leukemia ip, survival T/C
# ASSAY SUMMARY: NCI In Vivo Anticancer Drug Screen. Data for tumor model L1210 Leukemia (intraperitoneal) in CD2F1 (CDF1) mice
# TEST CONDITIONS: endpoint: median survival time; dose: 50.0 mg/kg/injection; schedule: Q01DX009 (ip); vehicle: saline with Tween-80
Toxic doses and inconclusive results are not listed. How the source made its calls: active means survival T/C of 150% or more; inactive means T/C below 125% in these data.
Outcomes: Yes = active, No = inactive

{"COMPOUND": "CCCCCC1c2cc(O)ccc2OC1N1CCOCC1 (stereo not given)", "LABEL CLASS": "No"}
{"COMPOUND": "COc1ccc(C(C)c2cc3c(cc2OC)OCO3)cc1 (stereo not given)", "LABEL CLASS": "No"}
{"COMPOUND": "Cc1cc2c(C(C)C)c(O)c(O)c(C=NCCO)c2c(O)c1-c1c(C)cc2c(C(C)C)c(O)c(O)c(C=NCCO)c2c1O", "LABEL CLASS": "No"}
{"COMPOUND": "CCCCn1cnc2c(=S)nc[nH]c21", "LABEL CLASS": "No"}
{"COMPOUND": "NC(=S)N/N=C/c1ccc(OC(=O)COc2ccc(Cl)cc2)cn1", "LABEL CLASS": "Yes"}

====

# Tested on: CD2F1 mice, L1210 leukemia ip, survival T/C
# ASSAY SUMMARY: NCI In Vivo Anticancer Drug Screen. Data for tumor model L1210 Leukemia (intraperitoneal) in CD2F1 (CDF1) mice
# TEST CONDITIONS: endpoint: mean survival time; dose: 25.0 mg/kg/injection; schedule: Q01DX009 (ip); vehicle: other; higher = longer survival
Toxic doses and inconclusive results are not listed.

{"MOLECULE": "c1ccc2c(CN3CC3)c[nH]c2c1", "T/C": "109 % of control"}
{"MOLECULE": "CCOC(=O)C(Br)C(Br)c1cccc([N+](=O)[O-])c1 (stereo not given)", "T/C": "98 % of control"}
{"MOLECULE": "CCOC(=O)C1C(=O)N(C)C(=O)N1Cc1ccccc1 (stereo not given)", "T/C": "89 % of control"}
{"MOLECULE": "CCCCCCCCCCSCC(N)C(=O)O (stereo not given)", "T/C": "88 % of control"}
{"MOLECULE": "CC(=O)OCC1OC(OC(C)=O)C(NC(=O)NS(=O)(=O)c2ccc(C)cc2)C(OC(C)=O)C1OC(C)=O (stereo not given)", "T/C": "98 % of control"}

====

# System: CD2F1 mice, L1210 leukemia ip, survival T/C
# ASSAY SUMMARY: NCI In Vivo Anticancer Drug Screen. Data for tumor model L1210 Leukemia (intraperitoneal) in CD2F1 (CDF1) mice
# TEST CONDITIONS: endpoint: mean survival time; dose: 400.0 mg/kg/injection; schedule: Q04DX003 (ip); vehicle: Klucel (hydroxypropylcellulose) (HPC)
Toxic doses and inconclusive results are not listed. The calls were made as follows: active = survival T/C of 150% or more; inactive = T/C below 125% in these data.
Outcomes: active, inactive

{"MOLECULE": "N#CC1c2ccccc2C=CN1C(=O)OCc1ccccc1 (centres undefined)", "LABEL CLASS": "inactive"}
{"MOLECULE": "CCCCCCCCCCCCCCCC[N+]1(CC)CC[N+](CC)(CCCCCCCCCCCCCCCC)CC1 (centres undefined)", "LABEL CLASS": "inactive"}
{"MOLECULE": "NC(=O)c1[nH]cnc1/N=N/N(CCCl)Cc1ccccc1", "LABEL CLASS": "active"}
{"MOLECULE": "O=C(O)c1c2ccccc2cc2ccccc12", "LABEL CLASS": "inactive"}
{"MOLECULE": "CCOC1=C(C#N)CC2(CC1)c1ccccc1-c1ccccc12", "LABEL CLASS": "inactive"}
{"MOLECULE": "O=C(OCC#CC#CCOC(=O)c1cccc2ccccc12)c1cccc2ccccc12", "LABEL CLASS": "inactive"}
{"MOLECULE": "C=CC[N+]12CC=C3COC(=O)C(C)(O)C(C)(O)C(C)C(=O)OC(CC1)C32 (centres undefined)", "LABEL CLASS": "inactive"}
{"MOLECULE": "C(=N\\Nc1nc2ccccc2s1)/c1cccnc1", "LABEL CLASS": "inactive"}
{"MOLECULE": "CCOC(=O)c1cc(=O)c2cc(S(=O)(=O)F)ccc2[nH]1", "LABEL CLASS": "inactive"}

====

# Test system: CD2F1 mice, L1210 leukemia ip, survival T/C
# ASSAY SUMMARY: NCI In Vivo Anticancer Drug Screen. Data for tumor model L1210 Leukemia (intraperitoneal) in CD2F1 (CDF1) mice
# TEST CONDITIONS: endpoint: mean survival time; dose: 400.0 mg/kg/injection; schedule: Q01DX009 (ip); vehicle: saline with Tween-80; higher = longer survival
Toxic doses and inconclusive results are not listed.
PARAMETER MEASURED: T/C

{"COMPOUND": "CCOC(=O)C(C)OC(=O)c1ccccc1 (stereo not drawn)", "PARAMETER MEASURED": "T/C", "RECORDED MEASUREMENT": "100 % of control"}
{"COMPOUND": "CC(=O)NC(C(=O)O)C(C)c1c[nH]c2ccccc12 (stereo not drawn)", "PARAMETER MEASURED": "T/C", "RECORDED MEASUREMENT": "95 % of control"}
{"COMPOUND": "O=C(O)/C=C\\C(=O)Nc1ccccc1", "PARAMETER MEASURED": "T/C", "RECORDED MEASUREMENT": "96 % of control"}
{"COMPOUND": "COc1ccc(-c2ccc(-c3ccc(S(=O)(=O)c4ccc(-c5ccc(-c6ccc(OC)cc6)cc5)c(N)c4)cc3N)cc2)cc1", "PARAMETER MEASURED": "T/C", "RECORDED MEASUREMENT": "89 % of control"}
{"COMPOUND": "C=CCCCCn1c2ccccc2c2c(C)c3cnccc3c(C)c21", "PARAMETER MEASURED": "T/C", "RECORDED MEASUREMENT": "97 % of control"}
{"COMPOUND": "COc1ccc(CCNC(=O)CCN2C(=O)CCC2=O)cc1OC", "PARAMETER MEASURED": "T/C", "RECORDED MEASUREMENT": "100 % of control"}
{"COMPOUND": "O=C(O)CCCSc1nc2ccccc2s1", "PARAMETER MEASURED": "T/C", "RECORDED MEASUREMENT": "105 % of control"}
{"COMPOUND": "Clc1c(Cl)c(Cl)c(CSCc2c(Cl)c(Cl)c(Cl)c(Cl)c2Cl)c(Cl)c1Cl", "PARAMETER MEASURED": "T/C", "RECORDED MEASUREMENT": "94 % of control"}
{"COMPOUND": "CC(=O)OCc1ccc(Cl)cc1Cl", "PARAMETER MEASURED": "T/C", "RECORDED MEASUREMENT": "95 % of control"}
{"COMPOUND": "O=C1c2ccccc2C(=O)c2c1ccc(O)c2O", "PARAMETER MEASURED": "T/C", "RECORDED MEASUREMENT": "90 % of control"}
{"COMPOUND": "BrC1C(Br)C2C3C=CC(c4ccccc43)C12 (stereo not drawn)", "PARAMETER MEASURED": "T/C", "RECORDED MEASUREMENT": "89 % of control"}
{"COMPOUND": "O=C1c2ccccc2S(=O)(=O)N1CCBr", "PARAMETER MEASURED": "T/C", "RECORDED MEASUREMENT": "102 % of control"}
{"COMPOUND": "COc1ccc(NC(=O)Oc2ccccc2-c2ccccc2)cc1", "PARAMETER MEASURED": "T/C", "RECORDED MEASUREMENT": "89 % of control"}
